- method-notes: chemical genetic growth profiling, strain panel (AID 1159580);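 further: tested at 20 µM; growth read once vehicle control cultures reached saturation at 30 °C; 1 = growth at the plate median or of vehicle wells; lower values mean less growth of the strain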
- run-conditions: S. cerevisiae deletion strains, growth OD, locus YDR388W, hits give low values
Out of some 5,500 compounds screened, about 2,000 (36%) were called active. Roughly 18% stayed inconclusive and do not appear here. Some of the results follow.
Below, each entry is listed alongside its reported normalized growth.

Some solved cases for reference:
{"columns": ["compound", "value"],
 "data": [
  ["C/C1=C\\CCC(=O)C2CC(C)(C)C2CC1 (stereo not drawn)", "1.03 (inactive)"],
  ["CC(C(=O)O)c1ccc(C(=O)c2cccs2)cc1 (stereo not drawn)", "1.02 (inactive)"],
  ["C=C1CCC(=O)C(C)CCC2C1CC2(C)C (stereo not drawn)", "0.997 (inactive)"]
]}

Request: Look up normalized growth for this compound: `Cc1cc(-c2ccccc2)nnc1NCCN1CCOCC1`
Response: 0.986 (inactive)

Request: Look up normalized growth for this compound: `Cc1cccc(C(=O)O)c1O`
Response: 1.02 (inactive)

Request: Look up normalized growth for this compound: `Cc1c(Cl)cccc1Nc1ccccc1C(=O)O`
Response: 0.79 (active)

Request: Look up normalized growth for this compound: NC(CO)C(=O)NNCc1ccc(O)c(O)c1O (stereo not drawn)
Response: 0.99 (inactive)

Request: Look up normalized growth for this compound: `O=C(O)CN1C(=O)c2cccc3cccc(c23)C1=O`
Response: 0.994 (inactive)

Request: Look up normalized growth for this compound: C=C1CCC(OC(C)=O)/C(C)=C/C[C@@H]2[C@@H]1CC2(C)C (stereo partly drawn)
Response: 1.02 (inactive)

Request: Look up normalized growth for this compound: COC(=O)C(C)c1ccc(C(=O)c2cccs2)cc1 (stereo not drawn)
Response: 0.973 (inactive)

Request: Look up normalized growth for this compound: C=C1CCC(C2CC(=O)OC2=O)C(=O)CCC2C1CC2(C)C (stereo not drawn)
Response: 1 (inactive)

Request: Look up normalized growth for this compound: `C=C1C(=O)O[C@@H]2C[C@@]3(C)CCC[C@H](C)C3=C[C@H]12`
Response: 0.869 (active)

Request: Look up normalized growth for this compound: COC(=O)C(O)c1ccccc1 (stereo not drawn)
Response: 0.973 (inactive)

---

- method-notes: chemical genetic growth profiling, strain panel (AID 1159580)
- run-conditions: S. cerevisiae deletion strains, growth OD, locus YDR052C, strain DBF4, hits give low values
About 2,000 (36%) of roughly 5,500 compounds were called active. Inconclusive results (about 18%) are left out. The list shows a part of the results.
observed-property: normalized growth
Lab note: write the figure by itself, no unit.

Some solved cases for reference:
{"columns": ["smiles-representation", "normalized growth"],
 "data": [
  ["O=C(Nc1ccc(Cl)cc1)OCCSc1nc2ccccc2s1", 0.994],
  ["CC(=O)ON=C1c2cc([N+](=O)[O-])ccc2-c2ccc([N+](=O)[O-])cc21", 0.953],
  ["CCc1ccn2cc(Nc3ccccc3Cl)nc2c1", 0.993],
  ["CCCCN(C)C(=O)c1cc([N+](=O)[O-])cc2c1-c1ccc([N+](=O)[O-])cc1C2=C(C#N)C#N", 0.975],
  ["Cc1c(C(=O)N(Cc2ccccc2)Cc2cccs2)cnn1-c1ccc(Cl)cc1", 1]
]}

Request: Look up normalized growth for this compound: `O=C(Nc1ccc(OC(F)(F)F)cc1)N1CCN(c2nc(-c3ccccc3)ns2)CC1`
Response: 0.992

Request: Look up normalized growth for this compound: `O=C(NNc1ccc(I)cc1)c1cc(Cl)cc(Cl)c1`
Response: 0.952

Request: Look up normalized growth for this compound: `FC(F)(F)c1ccnc(N2CCCN(C(=S)Nc3ccc(Cl)cc3Cl)CC2)n1`
Response: 0.972

Request: Look up normalized growth for this compound: `OC(=Cc1nc2ccccc2nc1C=C(O)c1ccc(Cl)cc1)c1ccc(Cl)cc1`
Response: 0.981

Request: Look up normalized growth for this compound: `O=C(/C=C/Sc1nc2ccccc2s1)c1ccc(Cl)cc1`
Response: 0.99

---

Below, each entry is listed alongside its reported normalized growth.
- method-notes: chemical genetic growth profiling, strain panel (AID 1159580)
- run-conditions: S. cerevisiae deletion strains, growth OD, locus YER002W, strain NOP16, hits give low values
Among all 5,500 compounds or so, about 2,000 (36%) were called active. Inconclusive results (about 18%) are left out. The list shows a part of the results.
Lab note: write the figure by itself, no unit.

Request: Look up normalized growth for this compound: CC1OC1P(=O)(O)O (stereo unspecified)
Response: 0.978

Request: Look up normalized growth for this compound: CC(C)(Oc1ccc(C2CC2(Cl)Cl)cc1)C(=O)O (stereo unspecified)
Response: 0.962

Request: Look up normalized growth for this compound: `CCCN1CCC[C@@H](c2cccc(C#N)c2)C1`
Response: 0.989

---

- method-notes: chemical genetic growth profiling, strain panel (AID 1159580);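 further: tested at 20 µM; growth read once vehicle control cultures reached saturation at 30 °C; 1 = growth at the plate median or of vehicle wells; lower values mean less growth of the strain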
- run-conditions: S. cerevisiae deletion strains, growth OD, locus YPR167C, strain met16, hits give low values
About 2,000 (36%) of roughly 5,500 compounds were called active. Roughly 18% stayed inconclusive and do not appear here. The list shows a part of the results.
Below, each entry is listed alongside its reported normalized growth.
Lab note: write the figure by itself, no unit.

{"columns": ["compound", "observed-property", "value"],
 "data": [
  ["C[C@@H]1C(=O)OC2[C@H](O)C34[C@@H]5OC(=O)[C@@]3(O[C@@H]3OC(=O)[C@H](O)[C@@]34[C@H](C(C)(C)C)[C@H]5O)[C@]21O (stereo not given in full)", "normalized growth", 1.02],
  ["CCN(CC)CCOC(=O)c1ccc(N)cc1", "normalized growth", 0.991]
]}

Request: Look up normalized growth for this compound: CC1=CC2C(CC1=O)C(C)=CCC2C(C)C (stereo not given)
Response: 0.995

Request: Look up normalized growth for this compound: `COc1ccc(CCN2CCC(Nc3nc4ccccc4n3Cc3ccc(F)cc3)CC2)cc1`
Response: 0.976

Request: Look up normalized growth for this compound: `Clc1cccc(Cl)c1NC1=NCCN1`
Response: 1.01

Request: Look up normalized growth for this compound: `Cc1cccc(C)c1NC1=NCCCS1`
Response: 0.992

Request: Look up normalized growth for this compound: CC1(C)C2(Cl)C(Cl)C(Cl)C(Cl)(C(Cl)Cl)C1(Cl)C2Cl (stereo not given)
Response: 0.974

---

- method-notes: chemical genetic growth profiling, strain panel (AID 1159580);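 further: tested at 20 µM; growth read once vehicle control cultures reached saturation at 30 °C; 1 = growth at the plate median or of vehicle wells; lower values mean less growth of the strain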
- run-conditions: S. cerevisiae deletion strains, growth OD, locus YJL168C, strain set2, hits give low values
The campaign covered roughly 5,500 compounds. About 2,000 (36%) were called active. Another 18% or so got no clear call; they are omitted. The list shows a part of the results.
observed-property: normalized growth
Lab note: write the figure by itself, no unit.

{"columns": ["compound", "normalized growth"],
 "data": [
  ["C[N+]1(C)C2CC(OC(=O)[C@@H](CO)c3ccccc3)CC1C1OC12 (stereo partly specified)", 1.01],
  ["Oc1ccc2c(c1)OCC1c3cc4c(cc3OC21)OCO4 (stereo unspecified)", 0.996],
  ["COc1ccc2c(c1)O[C@H]1c3ccc(OC)cc3OC[C@@H]21", 0.955],
  ["COc1ccc([C@H]2Oc3cc(OC)cc(OC)c3C[C@H]2O)cc1", 1],
  ["Nc1ccc(N=Nc2ccccc2)c(N)n1", 1]
]}

Proceed to the following item.
Request: Look up normalized growth for this compound: O=C1[C@H](CCC(O)c2ccc(F)cc2)[C@@H](c2ccc(O)cc2)N1c1ccc(F)cc1 (stereo partly specified)
Response: 0.965

---

- method-notes: chemical genetic growth profiling, strain panel (AID 1159580);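 further: tested at 20 µM; growth read once vehicle control cultures reached saturation at 30 °C; 1 = growth at the plate median or of vehicle wells; lower values mean less growth of the strain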
- run-conditions: S. cerevisiae deletion strains, growth OD, locus YLR371W, strain rom2, hits give low values
In all, about 5,500 compounds went through this assay and about 2,000 (36%) were called active. Another 18% or so got no clear call; they are omitted. The list shows a part of the results.
observed-property: normalized growth
Lab note: write the figure by itself, no unit.

{"columns": ["molecule", "normalized growth"],
 "data": [
  ["CC(C)(C)CC(C)(C)c1ccc(O)c(Cc2ccc(Cl)cc2Cl)c1", 1.01],
  ["CO/N=C(\\C(=O)N[C@@H]1C(=O)N2C(C(=O)O)=C(COC(C)=O)CS[C@H]12)c1csc(N)n1", 0.994],
  ["Cc1cccc(Nc2ccccc2C(=O)O)c1C", 0.858],
  ["COc1c2ccoc2c(OC)c2oc(=O)ccc12", 0.84]
]}

Request: Look up normalized growth for this molecule: NC(CO)C(=O)NNCc1ccc(O)c(O)c1O (stereo not given)
Response: 0.991

Request: Look up normalized growth for this molecule: C=C1CCC(C2CC(=O)OC2=O)C(=O)CCC2C1CC2(C)C (stereo not given)
Response: 0.997

Request: Look up normalized growth for this molecule: `CC[C@H](C)C(=O)O[C@H]1C[C@@H](C)C=C2C=C[C@H](C)[C@H](CC[C@@H]3C[C@@H](O)CC(=O)O3)[C@H]21`
Response: 0.982

Request: Look up normalized growth for this molecule: `O=C(O)c1ccccc1-c1c2cc(Br)c(=O)cc-2oc2[c]([Hg])c(O)c(Br)cc12`
Response: 0.0749

Request: Look up normalized growth for this molecule: `Cc1c(Cl)cccc1Nc1ccccc1C(=O)O`
Response: 0.838

Request: Look up normalized growth for this molecule: O=C1CC2OCC=C3CN4CC[C@]56c7ccccc7N1C5[C@H]2[C@H]3CC46 (stereo not given in full)
Response: 0.993

Request: Look up normalized growth for this molecule: CC1(C)C2CC(=O)[C@]3(C)C(CC[C@@]4(C)[C@H](c5ccoc5)OC(=O)[C@H]5O[C@]543)[C@@]2(C)C=C[C@@H]1O (stereo not given in full)
Response: 1.01

Request: Look up normalized growth for this molecule: C#CCCCCCCCCCCCC(=O)CC(O)COC(C)=O (stereo not given)
Response: 0.964

Request: Look up normalized growth for this molecule: C=CCCCCCCCCCCCC(O)CC(O)COC(C)=O (stereo not given) (tested in a mixture with another compound)
Response: 0.874

Request: Look up normalized growth for this molecule: `COc1c(OC)c2occc2c2oc(=O)ccc12`
Response: 0.816
